# Target Of Assay: HIV integrase (Human immunodeficiency virus type 1 group M subtype B, UniProt P12497, F1332H)
# Construct: HIV integrase full length gene
# Assay Info: Determination of enzyme (HIV integrase) inhibitory activity
# Condition Context: recombinant HIV integrase (F185H), strand transfer ELISA, absorbance at 450 nm
Where a name gives a salt, the structure may show the parent alone.
Endpoint Label: IC50

Below are worked cases with known answers.
O=C1c2c(O)c(=O)c(-c3cnccn3)cn2CCN1Cc1ccc(F)c(Cl)c1	10 to 100 nM
CC1Cn2ccc(=O)c(O)c2C(=O)N1Cc1ccc(Cl)c(Cl)c1 (centres unmarked)	10 to 100 nM
Cn1ncnc1-c1cn2ccn(Cc3ccc(F)cc3)c(=O)c2c(O)c1=O [Example 360, hydrochloride]	< 10 nM
O=c1ccn2c(CCCO)cn(Cc3ccc(Cl)c(Cl)c3)c(=O)c2c1O	10 to 100 nM
CCCOc1ccc(CN2CCn3cc(-c4nccs4)c(=O)c(O)c3C2=O)cc1Cl [Example 354, hydrochloride]	10 to 100 nM
O=C(Cc1cc(=O)c(O)c2n1CCN(Cc1ccc(Cl)c(Cl)c1)C2=O)OCc1ccccc1	< 10 nM
CS(=O)(=O)Cc1cc(=O)c(O)c2n1CCN(Cc1ccc(Cl)c(Cl)c1)C2=O	10 to 100 nM
O=c1c(-c2nccs2)cn2ccn(Cc3ccc(F)cc3)c(=O)c2c1O [Example 252, hydrochloride]	< 10 nM
O=c1c(-c2ncco2)cn2ccn(Cc3cccc(Cl)c3)c(=O)c2c1O [Example 197, hydrochloride]	10 to 100 nM
CCC(C)(C)C(=O)c1cn2c(c(O)c1=O)C(=O)N(Cc1cccc(Cl)c1)CC2	10 to 100 nM

Which IC50 is listed for NC(=O)c1cn2ccn(Cc3cccc(Cl)c3)c(=O)c2c(O)c1=O ?
10 to 100 nM

Which IC50 is listed for COC(=O)c1cc(=O)c(O)c2n1CCN(Cc1ccc(Cl)c(Cl)c1)C2=O ?
10 to 100 nM

Which IC50 is listed for COC(=O)c1cn2c(c(O)c1=O)C(=O)N(Cc1cccc(Cl)c1)CC2 ?
10 to 100 nM
